Value source: ChEMBL document CHEMBL1955720

Sequence of the target: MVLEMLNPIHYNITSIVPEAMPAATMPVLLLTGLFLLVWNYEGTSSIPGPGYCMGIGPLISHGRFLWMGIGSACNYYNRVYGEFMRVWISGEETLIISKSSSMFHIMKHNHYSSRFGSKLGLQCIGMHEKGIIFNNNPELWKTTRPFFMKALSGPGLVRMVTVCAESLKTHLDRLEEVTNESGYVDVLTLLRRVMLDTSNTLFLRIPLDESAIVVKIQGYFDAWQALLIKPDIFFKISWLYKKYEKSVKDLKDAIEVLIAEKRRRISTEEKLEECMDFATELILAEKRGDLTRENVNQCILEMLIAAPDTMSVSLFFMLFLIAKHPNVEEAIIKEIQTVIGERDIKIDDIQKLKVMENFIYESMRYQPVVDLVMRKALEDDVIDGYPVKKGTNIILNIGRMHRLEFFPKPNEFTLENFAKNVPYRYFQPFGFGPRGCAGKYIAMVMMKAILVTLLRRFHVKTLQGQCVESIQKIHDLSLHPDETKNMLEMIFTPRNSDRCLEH
readout_label: Ki
Phrase the answer as number then unit, nothing more needed.

substance_smiles	result
Brc1ccc(-c2nc(-c3cccnc3)cs2)cc1	1720 nM

Input line: Sample Oc1ccc(-c2nc(-c3cccnc3)cs2)cc1 — what was its Ki?
Output line: 2550 nM

Input line: Which measured Ki value corresponds to c1ccc(-c2nc(-c3cccnc3)cs2)cc1 ?
Output line: 63.4 nM

###

Catalogue of log10(CD) readings, one per entry.
- study_target: NAD(P)H dehydrogenase [quinone] 1 (Mus musculus)
- protocol_description: Induction of QR1 in mouse Hepa-1c1c7 cells assessed as concentration required to double QR1 induction by MTT assay
- Assay type: cell-based
Remember, log10 of CD, in µM.

Examples with their reported log10(CD) follow.
substance_smiles	log10(CD)
Brc1cccc(-c2nc(-c3cccnc3)ns2)c1	-1.22
COc1cccc(-c2nc(-c3cccnc3)ns2)c1	-1.10
Brc1ccc(-c2csc(-c3cccnc3)n2)cn1	1.30
Clc1ccc(-c2nc(-c3cccnc3)cs2)cc1	1.51

Input line: What measured log10(CD) is associated with Brc1ccc(-c2nc(-c3cccnc3)cs2)cc1 on NAD(P)H dehydrogenase [quinone] 1 (Mus musculus)?
Output line: 1.52

###

Target protein (sequence): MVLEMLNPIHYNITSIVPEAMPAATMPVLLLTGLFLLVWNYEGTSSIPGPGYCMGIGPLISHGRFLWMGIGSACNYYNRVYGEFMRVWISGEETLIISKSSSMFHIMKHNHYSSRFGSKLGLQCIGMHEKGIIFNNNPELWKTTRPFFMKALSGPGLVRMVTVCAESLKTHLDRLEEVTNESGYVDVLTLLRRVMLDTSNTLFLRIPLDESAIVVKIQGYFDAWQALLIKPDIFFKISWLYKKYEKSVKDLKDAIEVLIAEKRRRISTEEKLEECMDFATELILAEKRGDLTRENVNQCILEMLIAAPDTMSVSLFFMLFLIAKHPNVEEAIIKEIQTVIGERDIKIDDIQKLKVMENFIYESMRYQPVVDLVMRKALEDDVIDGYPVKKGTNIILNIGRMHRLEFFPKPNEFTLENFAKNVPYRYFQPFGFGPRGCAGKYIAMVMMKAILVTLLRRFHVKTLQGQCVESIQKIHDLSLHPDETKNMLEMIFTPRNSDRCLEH
readout_label: IC50 (µM)
Only the number, expressed in µM, is required.

substance_smiles	IC50, µM
Oc1ccc(-c2nc(-c3cccnc3)cs2)cc1	11.2
c1ccc(-c2nc(-c3cccnc3)cs2)cc1	0.9
Brc1ccc(-c2csc(-c3cccnc3)n2)cn1	7.41

Next up:
Input line: For the compound shown here, Brc1ccc(-c2nc(-c3cccnc3)cs2)cc1 , give the reported IC50.
Output line: 7.92
